Species on record: Rattus norvegicus
Experiment: Ability to inhibit N-formyl-methionyl-leucyl-phenylalanine (fMLP)-stimulated release of myeloperoxidase (MPO) from rat polymorphonuclear leukocytes (PMN).
Assay type: functional
parameter measured: log10 of IC50 (log10 of the value in µM)

| molecule smiles | recorded result |
| --- | --- |
| CN(C)c1cccc(C(=O)/C=C/c2ccncc2)c1 | 1.28 |
| O=C(/C=C/c1ccncc1)c1ccc(Cl)cc1 | 1.78 |
| Cc1cccc(C(=O)/C=C/c2ccncc2)c1 | 1.59 |
| O=C(/C=C/c1ccncc1)c1ccc(C(F)(F)F)cc1 | 2.31 |
| O=C(C#Cc1ccncc1)c1ccccc1 | 1.20 |
| N#Cc1cccc(C(=O)/C=C/c2ccncc2)c1 | 1.93 |
| N#Cc1ccc(C(=O)/C=C/c2ccncc2)cc1 | 2.09 |

----------
Species on record: Rattus norvegicus
Assay: Ability to inhibit N-formyl-methionyl-leucyl-phenylalanine (fMLP)-stimulated release of myeloperoxidase (MPO) from rat polymorphonuclear leukocytes (PMN).
Format: functional
parameter measured: IC50

| molecule | parameter measured | recorded result |
| --- | --- | --- |
| COc1cc(C(O)/C=C/c2ccncc2)cc(OC)c1OC (centres undefined) | IC50 | > 100 µM |
| O=C(c1ccccc1)c1cccc(-c2cccnc2)c1 | IC50 | > 100 µM |
| C(=C\c1noc2ccccc12)/c1ccncc1 | IC50 | > 100 µM |
| O=C(c1ccccc1)c1ccc2ncccc2c1 | IC50 | > 100 µM |

----------
Species on record: Rattus norvegicus
Assay: Ability to inhibit N-formyl-methionyl-leucyl-phenylalanine (fMLP)-stimulated release of myeloperoxidase (MPO) from rat polymorphonuclear leukocytes (PMN).
Format: functional
The compounds listed here are annotated with their IC50.

| molecule smiles | IC50 |
| --- | --- |
| COc1cc(C(=O)CCc2ccncc2)cc(OC)c1OC | > 100 µM |
| O=c1cc(-c2cccnc2)oc2ccccc12 | > 100 µM |
| COc1cc(C(=O)/C=C/c2cc[n+](C)cc2)cc(OC)c1OC | > 50 µM |
| COc1cc(C(=O)/C(C)=C/c2ccncc2)cc(OC)c1OC | > 100 µM |
| O=C1c2ccccc2-c2cccc(-c3cccnc3)c21 | > 100 µM |
| O=C(c1ccccc1)c1ccccc1-c1cccnc1 | > 100 µM |
